tested on: OVCAR-5; assay: NCI tumour cell line growth inhibition, 48 h
Activity calls are given as the source filed them. No stated cut-off is given here; in the data, active = GI50 up to about 1.1 µM and inactive = higher. Residues, ends and D or L forms follow the SMILES beside them. *: point of attachment. Boc = CC(C)(C)OC(=O)*
// classify into TRUE = active, FALSE = inactive

## Task Please let me know the test result on file for Cc1noc2c1C(=O)CCC2 .
## Result FALSE

## Task Ok, now COc1cc2c[n+](C)c3c4cc(OC)c(OC)cc4c(OC)cc3c2cc1OC
## Result FALSE

## Task Now this one: NNC(=O)CC(=O)Nc1ccc(C(=O)O)cc1
## Result FALSE

## Task Quick one: Cc1[nH]c2ccccc2c1C(=O)CC1(O)C(=O)Nc2c(Cl)cc(Cl)cc21 (stereo not given)
## Result FALSE

## Task And the next one, CNC(=O)OCc1cnc([N+](=O)[O-])n1C ?
## Result FALSE

## Task Input CN(C)Cc1cc(/C(=C(\C#N)c2ccccc2)c2ccc(O)cc2)ccc1O
## Result FALSE

## Task And the next one, COC(=O)/C=C(\S/C(=C(/c1ccccc1)n1cc(C(=O)OC)c(C(=O)OC)n1)c1ccccc1)C(=O)OC ?
## Result FALSE

## Task Entry COC(=O)C(Cc1c[nH]c2ccccc12)NC(=O)C(Cc1c[nH]c2ccccc12)NC(=O)C(Cc1c[nH]c2ccccc12)NC(=O)C(Cc1c[nH]c2ccccc12)NC(=O)OC(C)(C)C (stereo not given) (Boc-WWWW-OMe; configuration not given here) please
## Result FALSE

## Task Proceed to Cc1ccc(N(Cc2ccccc2)Cc2ccccc2)cc1
## Result FALSE

## Task Consider next the compound O=C(O)[C@H](NS(=O)(=O)c1ccc(F)cc1)c1ccccc1 in the same way.
## Result FALSE

## Task # repeat for S=P(C1CCCCC1)(C1CCCCC1)C(c1cccnc1)N1CCCC1 (stereo not given)
## Result FALSE

## Task Also check Cc1cccc(C)c1NC(=O)/C(Cc1nc2ccc([N+](=O)[O-])cc2nc1O)=N\NC(N)=O
## Result FALSE

## Task Can you check COC(=O)CCC1=NOC(CC2CC(CCC(=O)OC)=NO2)C1 (stereo not given) next?
## Result FALSE

## Task And for COc1ccc([N+]2=NC(c3ccc([N+](=O)[O-])cc3)=NN(c3ccccc3)C2)cc1 ?
## Result FALSE

## Task Param item: Nc1nc(SCCC/C=C/B(O)O)nc2c1ncn2C1OC(CO)C(O)C1O (stereo not given)
## Result FALSE

## Task Okay, and C[N+]1=c2c3cccc4cccc(c(=O)n2CCC1)c43 ?
## Result FALSE

## Task Entry COc1ccc(C2c3cc4c(c(OC)c3CC3OCC(=O)C32)OCO4)cc1OC (stereo not given) please
## Result TRUE

## Task Now try CCOC(=O)C[n+]1cccc(C2(c3cc4ccccc4[nH]3)OCCO2)c1 .
## Result FALSE

## Task Queued: COC(=O)C(C#N)C1NC(=O)c2ccccc21 (stereo not given)
## Result FALSE

## Task And the next one, CC(=O)O[C@H]1CN(S(=O)(=O)c2ccc(C)cc2)C[C@@H]1C1CCCCC1 ?
## Result FALSE

====

test system: RPMI-8226; assay: NCI tumour cell line growth inhibition, 48 h
Calls of active or inactive are those of the source. Cut-off read from the data, not from the text of the source: active = GI50 up to about 1.1 µM and inactive = higher. Where a SMILES comes first, the peptide text is derived from it. The star is where a group is joined. X33 = O=C(c1ccc(-c2ccc(Cl)cc2Cl)o1)*
Could you please report measured GI50 for the items listed next?

## Task Which value of GI50 has been reported for C/C(=N\Nc1nc2cc(C)ccc2s1)c1ccccn1 in the records?
## Result 0.273 µM (active)

## Task Subsequent entry: Cc1nc(N)c(N2CCN(C(=O)O)CC2)c(O)n1
## Result > 100 µM (inactive)

## Task Same question, COc1cc(C2c3cc4c(cc3OC(NCc3ccccc3)C2C)OCO4)cc(OC)c1OC (stereo not given) this time
## Result 0.381 µM (active)

## Task Follow-up item: CCC(C)C(NC(=O)CNC(=O)C(Cc1ccccc1)NC(=O)C1CCCN1C(=O)c1ccc(-c2ccc(Cl)cc2Cl)o1)C(=O)OC (stereo not given) (X33-PFGI-OMe; configuration not given here)
## Result 14.7 µM (inactive)

## Task One more compound: COc1cc2nc(-c3cccs3)[nH]c(=O)c2cc1OC
## Result 65.5 µM (inactive)
